- Test system: MDA-MB-435 melanoma
- assayText: NCI-60 one-dose screen, 48 h (100 = growth as untreated, 0 = no growth, -100 = all killed)
- conditions: 10 µM unless noted
This is part of a sample that, as a whole, favours compounds with a hit. Of some 83,000 tested, about 20% had one in any assay.
Please enter Met where growth is greater than or equal to 10%, and Not met where it is lower.

molecule: Oc1ccc(CSc2nnc(-c3ccc(Oc4ccccc4)cc3)o2)c2cccnc12
assayedTarget: MDA-MB-435 melanoma
label: Met
--
molecule: O=C(NNc1nc2cc(F)cc(F)c2n2cccc12)c1ncccn1
assayedTarget: MDA-MB-435 melanoma
label: Met
--
molecule: Cc1ccc(/C=C/c2nn3c(-c4ccco4)nnc3s2)cc1
assayedTarget: MDA-MB-435 melanoma
label: Met

Please tell me: is the molecule O=C(O)c1ccc(-n2cc(CNc3ccc(Cl)cc3)c(-c3ccc(F)cc3)n2)cc1 at or over 10% in terms of growth?
Met

Further, for Cc1cc(Cl)cc(NS(=O)(=O)c2ccc(-c3cnc(C4CC4)o3)cc2)c1 ?
Not met

Further, for CCOC(=O)c1ccc(N/C=C/C(=O)c2ccccc2)cc1 ?
Met

Further, for Nc1ccc(-c2nnc(SCc3ccc(O)c4ncccc34)n2-c2ccccc2)cc1 ?
Met

Further, for C/C(=C(/c1ccc(O)cc1)c1ccc(OCCN(C)C)cc1)c1ccc(Cl)cc1 ?
Met

Further, for Nc1c(C(=O)c2ccccc2)sc2nc(-c3cnccn3)cc(-c3cccs3)c12 ?
Met

Further, for COc1ccc(-c2nn(-c3ccccc3)cc2/C=C/C(=O)c2ccc(NC(=O)CCCCCCC(=O)NO)cc2)cc1 ?
Met

Further, for Cc1ccc(NC(=O)c2cc(/C=C/C(=O)NO)cc(C(F)(F)F)c2)cc1Nc1nccc(-c2cccnc2)n1 ?
Not met
